Source listed as patent US20080051457A1.

Quick reference for Physical properties logP(pH2.3) among some molecules
Protocol: logP (pH2.3), physical properties of Tables 1 to 3
Type: physicochemical
Assay Endpoint: Physical properties logP(pH2.3)

{"columns": ["Molecule", "Result Value"],
 "data": [
  ["Cc1cc(C(F)(C(F)(F)F)C(F)(F)F)ccc1NC(=O)c1cccc(Cl)c1C(=O)N[C@H](C[S+](C)[O-])C(C)C (stereo partly drawn) [Compound 1-349]", 3.03],
  ["CC[C@@H](CSC)NC(=O)c1c(I)cccc1C(=O)Nc1ccc(C(F)(C(F)(F)F)C(F)(F)F)cc1C [Compound 1-345]", 4.62],
  ["CSC[C@@H](NC(=O)c1c(I)cccc1C(=O)Nc1ccc(C(F)(C(F)(F)F)C(F)(F)F)cc1C)C(C)C [Compound 1-354]", 4.97],
  ["CC[C@@H](C[S+](C)[O-])NC(=O)c1c(Br)cccc1C(=O)Nc1ccc(C(F)(C(F)(F)F)C(F)(F)F)cc1C (stereo partly drawn) [Compound 1-343]", 2.83],
  ["Cc1cc(C(F)(C(F)(F)F)C(F)(F)F)ccc1NC(=O)c1cccc(I)c1C(=O)N[C@@H](CC(C)C)CS(C)(=O)=O [Compound 1-365]", 3.87],
  ["CC[C@@H](C[S+](C)[O-])NC(=O)c1c(I)cccc1C(=O)Nc1ccc(C(F)(C(F)(F)F)C(F)(F)F)cc1C (stereo partly drawn) [Compound 1-346]", 2.90]
]}

====

Protocol: logP (pH2.3), physical properties of Tables 1 to 3
Type: physicochemical
Measurement Setup: Table 1
Assay Endpoint: Physical properties: logP

{"columns": ["Molecule", "Result Value"],
 "data": [
  ["CCSC[C@H](C)NC(=O)c1c(Br)cccc1C(=O)Nc1ccc(I)c(F)c1C [Compound 1-183]", 3.66],
  ["Cc1c(NC(=O)c2cccc(I)c2C(=O)N[C@@H](C)CS(C)(=O)=O)ccc(C(F)(C(F)(F)F)C(F)(F)F)c1F [Compound 1-143]", 3.27],
  ["CC[S+]([O-])C[C@H](C)NC(=O)c1c(Cl)cccc1C(=O)Nc1ccc(C(F)(F)C(F)(F)F)c(F)c1C (stereo partly shown) [Compound 1-208]", 2.56],
  ["CCSC[C@H](C)NC(=O)c1c(I)cccc1C(=O)Nc1ccc(OC(F)(F)F)c(F)c1C [Compound 1-123]", 3.90],
  ["CCS(=O)(=O)C[C@H](C)NC(=O)c1c(Br)cccc1C(=O)Nc1ccc(OC(F)(F)F)c(F)c1C [Compound 1-191]", 2.69],
  ["CCSC[C@H](C)NC(=O)c1c(Br)cccc1C(=O)Nc1ccc(C(F)(F)F)c(F)c1C [Compound 1-180]", 3.80],
  ["CCSC[C@H](C)NC(=O)c1c(I)cccc1C(=O)Nc1ccc(C(F)(F)C(F)(F)F)c(F)c1C [Compound 1-108]", 4.36],
  ["CCSC[C@H](C)NC(=O)c1c(Cl)cccc1C(=O)Nc1ccc(C(F)(F)C(F)(F)F)c(F)c1C [Compound 1-207]", 4.21],
  ["CCS(=O)(=O)C[C@H](C)NC(=O)c1c(Cl)cccc1C(=O)Nc1ccc(C(F)(F)C(F)(F)F)c(Cl)c1C [Compound 1-212]", 3.14],
  ["Cc1c(NC(=O)c2cccc(Br)c2C(=O)N[C@@H](C)C[S+](C)[O-])ccc(C(F)(C(F)(F)F)C(F)(F)F)c1F (stereo partly shown) [Compound 1-169]", 2.72],
  ["CSC[C@H](C)NC(=O)c1c(I)cccc1C(=O)Nc1ccc(OC(F)(F)F)c(F)c1C [Compound 1-138]", 3.59],
  ["CSC[C@H](C)NC(=O)c1c(I)cccc1C(=O)Nc1ccc(I)c(F)c1C [Compound 1-150]", 3.42],
  ["Cc1c(NC(=O)c2cccc(Cl)c2C(=O)N[C@@H](C)C[S+](C)[O-])ccc(C(F)(C(F)(F)F)C(F)(F)F)c1F (stereo partly shown) [Compound 1-205]", 2.69]
]}

====

Recorded Physical properties logP(pH2.3) values for a group of compounds are listed next.
Protocol: logP (pH2.3), physical properties of Tables 1 to 3
Format: physicochemical
Text: However, the present invention is not limited to these compounds. In the tables, the term “physical properties” means a melting point or logp. The symbol “Me” represents a methyl group, “Et” represents an ethyl group, “Pr” represents a propyl group, “-n” represents normal, and “-i” represents iso.

{"columns": ["Compound", "Physical properties logP(pH2.3)"],
 "data": [
  ["Cc1cc(C(F)(C(F)(F)F)C(F)(F)F)ccc1NC(=O)c1cccc(Br)c1C(=O)N[C@@H](CC(C)C)CS(C)(=O)=O [Compound 1-362]", 3.82],
  ["Cc1cc(C(F)(C(F)(F)F)C(F)(F)F)ccc1NC(=O)c1cccc(Br)c1C(=O)N[C@@H](CC(C)C)C[S+](C)[O-] (some centres unmarked) [Compound 1-361]", 3.30],
  ["CSC[C@H](CC(C)C)NC(=O)c1c(Br)cccc1C(=O)Nc1ccc(C(F)(C(F)(F)F)C(F)(F)F)cc1C [Compound 1-360]", 5.16],
  ["CC[C@@H](CSC)NC(=O)c1c(Cl)cccc1C(=O)Nc1ccc(C(F)(C(F)(F)F)C(F)(F)F)cc1C [Compound 1-339]", 4.47],
  ["CC[C@@H](CS(C)(=O)=O)NC(=O)c1c(Cl)cccc1C(=O)Nc1ccc(C(F)(C(F)(F)F)C(F)(F)F)cc1C [Compound 1-341]", 3.31]
]}

====

Physical properties: logP listing for selected molecules.
Protocol: logP (pH2.3), physical properties of Tables 1 to 3
Type: physicochemical
Measurement Setup: Table 1
Assay Endpoint: Physical properties: logP

{"columns": ["Molecule", "Result Value"],
 "data": [
  ["CCS(=O)(=O)C[C@H](C)NC(=O)c1c(Br)cccc1C(=O)Nc1ccc(C(F)(F)C(F)(F)F)c(F)c1C", 3.06],
  ["Cc1c(NC(=O)c2cccc(Cl)c2C(=O)N[C@@H](C)CS(C)(=O)=O)ccc(C(F)(F)C(F)(F)F)c1F", 2.82],
  ["CCSC[C@H](C)NC(=O)c1c(I)cccc1C(=O)Nc1ccc(C(F)(F)F)c(F)c1C", 3.90],
  ["CCS(=O)(=O)C[C@H](C)NC(=O)c1c(Br)cccc1C(=O)Nc1ccc(C(F)(F)F)c(F)c1C", 2.66],
  ["CCS(=O)(=O)C[C@H](C)NC(=O)c1c(I)cccc1C(=O)Nc1ccc(C(F)(F)C(F)(F)F)c(F)c1C", 3.15],
  ["CCS(=O)(=O)C[C@H](C)NC(=O)c1c(I)cccc1C(=O)Nc1ccc(OC(F)(F)F)c(Br)c1Cl", 3.19],
  ["Cc1c(NC(=O)c2cccc(I)c2C(=O)N[C@@H](C)CS(C)(=O)=O)ccc(OC(F)(F)F)c1F", 2.60],
  ["CCS(=O)(=O)C[C@H](C)NC(=O)c1c(Br)cccc1C(=O)Nc1ccc(Br)c(Br)c1C", 2.59],
  ["CCSC[C@H](C)NC(=O)c1c(Cl)cccc1C(=O)Nc1ccc(C(F)(C(F)(F)F)C(F)(F)F)c(F)c1C", 4.54],
  ["CSC[C@H](C)NC(=O)c1c(Cl)cccc1C(=O)Nc1ccc(C(F)(C(F)(F)F)C(F)(F)F)c(F)c1C", 4.23],
  ["CCSC[C@H](C)NC(=O)c1c(I)cccc1C(=O)Nc1ccc(OC(F)(F)F)c(Cl)c1Cl", 4.41],
  ["CCS(=O)(=O)C[C@H](C)NC(=O)c1c(I)cccc1C(=O)Nc1ccc(Br)c(Br)c1C", 2.67],
  ["CCSC[C@H](C)NC(=O)c1c(Br)cccc1C(=O)Nc1cc(F)c(OC(F)(F)F)cc1Br", 4.18],
  ["Cc1c(NC(=O)c2cccc(I)c2C(=O)N[C@@H](C)CS(C)(=O)=O)ccc(Br)c1Br", 2.49],
  ["CC[S+]([O-])C[C@H](C)NC(=O)c1c(Br)cccc1C(=O)Nc1ccc(C(F)(F)C(F)(F)F)c(F)c1C (stereo partly shown)", 2.59],
  ["CSC[C@H](C)NC(=O)c1c(Br)cccc1C(=O)Nc1ccc(C(F)(F)C(F)(F)F)c(F)c1C", 3.93],
  ["CSC[C@H](C)NC(=O)c1c(I)cccc1C(=O)Nc1ccc(C(F)(F)C(F)(F)F)c(Cl)c1C", 4.20],
  ["CCSC[C@H](C)NC(=O)c1c(I)cccc1C(=O)Nc1ccc(C(F)(F)C(F)(F)F)c(Cl)c1C", 4.53],
  ["Cc1c(NC(=O)c2cccc(I)c2C(=O)N[C@@H](C)C[S+](C)[O-])ccc(C(F)(F)C(F)(F)F)c1F (stereo partly shown)", 2.50],
  ["CCS(=O)(=O)C[C@H](C)NC(=O)c1c(Br)cccc1C(=O)Nc1cc(F)c(OC(F)(F)F)cc1Br", 2.99],
  ["Cc1c(NC(=O)c2cccc(Br)c2C(=O)N[C@@H](C)CS(C)(=O)=O)ccc(C(F)(C(F)(F)F)C(F)(F)F)c1F", 3.21],
  ["CCS(=O)(=O)C[C@H](C)NC(=O)c1c(I)cccc1C(=O)Nc1cc(F)c(OC(F)(F)F)cc1Cl", 3.07],
  ["CCSC[C@H](C)NC(=O)c1c(Br)cccc1C(=O)Nc1cc(F)c(OC(F)(F)F)cc1Cl", 4.16],
  ["Cc1c(NC(=O)c2cccc(I)c2C(=O)N[C@@H](C)CS(C)(=O)=O)ccc(C(F)(F)C(F)(F)F)c1F", 2.97],
  ["CCS(=O)(=O)C[C@H](C)NC(=O)c1c(I)cccc1C(=O)Nc1ccc(I)c(F)c1C", 2.59],
  ["CCSC[C@H](C)NC(=O)c1c(I)cccc1C(=O)Nc1ccc(Br)c(F)c1C", 3.65],
  ["CCSC[C@H](C)NC(=O)c1c(I)cccc1C(=O)Nc1ccc(C(F)(C(F)(F)F)C(F)(F)F)c(F)c1C", 4.71],
  ["CCS(=O)(=O)C[C@H](C)NC(=O)c1c(Cl)cccc1C(=O)Nc1ccc(C(F)(F)C(F)(F)F)c(F)c1C", 3.01]
]}
